Assay: nuclear p53 accumulation, HPV+ cells – imaging, p53-positive nuclei imaging, 24 h, 48 h (AID 1508601)
Details: 24/48 h, measured here: cell number at 24 h, Library stock concentration: 1.5 uM
The campaign covered roughly 5,700 compounds. About 85 (1%) were called active. Shown is part of a subset that was picked to be rich in actives.
parameter_measured: nuclei count, normalised (%)
Numbers only; they are read as %.

// recorded nuclei count, normalised for OCC1OC(n2cnc3c2NC=NCC3O)CC1O (centres undefined) : 117

// nuclei count, normalised lookup, compound = CC(=O)OC1C(=O)[C@]2(C)C(O)CC3OC[C@@]3(OC(C)=O)C2C(OC(=O)c2ccccc2)[C@]2(O)CC(OC(=O)C(O)C(NC(=O)c3ccccc3)c3ccccc3)C(C)=C1C2(C)C (some centres undefined) , result: 89.9

nuclei count, normalised in this record for NC(=O)c1ncn(C2OC(CO)C(O)C2O)c1O (centres undefined) : 106

Recorded result, CCCCCCCCCCCCCC=CC(O)C(CO)N(C)C (centres undefined) , nuclei count, normalised: 110

Value of measured nuclei count, normalised for the entry "O=C(O)c1ccccc1SC1=NS(=O)(=O)c2ccccc21" : 119

Lab book: nuclei count, normalised of Nc1ccn(C2OC(CO)C(O)C2F)c(=O)n1 (centres undefined) noted as 111

For reference, reported nuclei count, normalised for C=C1C(=O)OC(CCCCCCCC)C1C(=O)O (centres undefined) stands at 107

The recorded nuclei count, normalised for "COc1ccc(N2C(=O)C(=Cc3ccc([N+](=O)[O-])s3)SC2=S)cc1" is 113

Form: compound = Nc1ccn(C2C=C(CO)C(O)C2O)c(=O)n1 (centres undefined) ; nuclei count, normalised = 117
